biological target: KRAS G12D (Homo sapiens, UniProt P01116, G12D); experiment: In-vitro RAS-RAF binding assay (RRB), HTRF/FRET; assay type: biochemical; design: Biotinylated KRAS protein amino acids 1-169 (produced at Erasca); made in house; details: Table 2, average of multiple runs of each compound; read-out: Inhibition of RAS-RAF Binding (in-vitro) KRAS (G12D) IC50
Sequence (P01116 1-169 isoform P01116-2 G12D): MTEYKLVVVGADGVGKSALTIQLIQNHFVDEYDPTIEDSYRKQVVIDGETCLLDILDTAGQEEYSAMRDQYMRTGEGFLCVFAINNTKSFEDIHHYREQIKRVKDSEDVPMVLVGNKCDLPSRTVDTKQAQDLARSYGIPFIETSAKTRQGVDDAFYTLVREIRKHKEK
pIC50: −log10 of the molar value.
valueKind: pIC50

Reference set (2 entries):
INSERT INTO assay_data (compound, observedresult) VALUES
  ('C#Cc1c(F)ccc2cc(O)cc(-c3ncc4c(N5CC6CCC(C5)N6)nc(OC[C@@H]5CCCN5CCCOCC(=O)N[C@H](C(=O)N5C[C@H](O)C[C@H]5C(=O)N[C@@H](C)c5ccc(-c6c(F)ccc(F)c6F)cc5)C(C)(C)C)nc4c3F)c12', 8.05),
  ('C[C@H](NC(=O)[C@@H]1C[C@@H](O)CN1C(=O)[C@@H](NC(=O)CCOCCCN1CCC[C@H]1COc1nc(N2CC3CCC(C2)N3)c2cc(C(F)(F)F)c(-c3ccc(F)c4sc(N)c(C#N)c34)c(F)c2n1)C(C)(C)C)c1ccc(-c2c(F)cccc2F)cc1 (single isomer, unassigned) [Example 20]', 8.07);

a. Cc1cc(N)nc(-c2c(Cl)cc3c(N4CC5CCC(C4)N5)nc(OC[C@@H]4CCCN4CCCOCCCOc4cc(-c5scnc5C)ccc4CNC(=O)[C@@H]4C[C@@H](O)CN4C(=O)[C@H](NC(=O)C4(F)CC4)C(C)(C)C)nc3c2F)c1C(F)(F)F
b. C[C@H](NC(=O)[C@@H]1C[C@@H](O)CN1C(=O)[C@@H](NC(=O)CCOCCCN1CCC[C@H]1COc1nc(N2CC3CCC(C2)N3)c2cc(C(F)(F)F)c(-c3ccc(F)c4sc(N)c(C#N)c34)c(F)c2n1)C(C)(C)C)c1ccc(-c2c(F)cc(F)cc2F)cc1
Consider a and b . Which of these has its pIC50 at a higher number? Label of pick, please.
b

---

target: KRas G12D fused to HiBiT peptide (Homo sapiens, UniProt P01116, G12D); construct: endogenous in cells; host or cells: AsPC-1 HiBiT knock-in single clone (Cas9 RNP + ssODN); experiment: ASPC-1 HiBit assay to determine G12D degradation; assay type: cell-based; conditions: AsPC-1 HiBiT cells, 24-hour incubation; read-out: ASPC-1 HiBit DC50 (C)
Sequence (P01116 1-188 isoform P01116-2 G12D): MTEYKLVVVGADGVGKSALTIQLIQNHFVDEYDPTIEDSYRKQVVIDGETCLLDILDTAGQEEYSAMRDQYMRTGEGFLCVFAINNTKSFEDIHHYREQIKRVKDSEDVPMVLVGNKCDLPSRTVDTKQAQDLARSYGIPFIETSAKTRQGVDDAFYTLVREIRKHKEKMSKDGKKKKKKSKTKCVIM
valueKind: DC50 (nM)
Please give a number only; it is taken to be in nM.

INSERT INTO assay_data (compound, valuekind, endpointunit, observedresult) VALUES
  ('C[C@H](NC(=O)[C@@H]1C[C@@H](O)CN1C(=O)[C@@H](NC(=O)CCOCCCN1CCC[C@H]1COc1nc(N2CC3CCC(C2)N3)c2cc(C(F)(F)F)c(-c3ccc(F)c4sc(N)c(C#N)c34)c(F)c2n1)C(C)(C)C)c1ccc(-c2c(F)ccc(F)c2F)cc1', 'DC50', 'nM', 34);

Please report the recorded DC50 for C[C@H](NC(=O)[C@@H]1C[C@@H](O)CN1C(=O)[C@@H](NC(=O)CCOCCCN1CCC[C@H]1COc1nc(N2CC3CCC(C2)N3)c2cc(C(F)(F)F)c(-c3ccc(F)c4sc(N)c(C#N)c34)c(F)c2n1)C(C)(C)C)c1ccc(-c2c(F)cccc2F)cc1 (single isomer, unassigned) .
22.7

---

target: KRAS G12D (Homo sapiens, UniProt P01116, G12D); experiment: In-vitro RAS-RAF binding assay (RRB), HTRF/FRET; assay type: biochemical; design: Biotinylated KRAS protein amino acids 1-169 (produced at Erasca); made in house; settings: Table 2, average of multiple runs of each compound; read-out: Inhibition of RAS-RAF Binding (in-vitro) KRAS (G12D) IC50
pIC50: −log10 of the molar value.
valueKind: pIC50

INSERT INTO measurements (compound, observedresult) VALUES
  ('CC(C)[C@@H](C(=O)N1C[C@H](O)C[C@H]1C(=O)N[C@@H](C)c1ccc(-c2c(F)cccc2F)cc1)c1cc(OCC2CCN(CCOc3nc(N4CC5CCC(C4)N5)c4cc(Cl)c(-c5ccc(F)c6sc(N)c(C#N)c56)c(F)c4n3)CC2)no1', 7.81),
  ('C[C@H](NC(=O)[C@@H]1C[C@@H](O)CN1C(=O)[C@@H](NC(=O)CCOCCCN1CCC[C@H]1COc1nc(N2CC3CCC(C2)N3)c2cc(Cl)c(-c3ccc(F)c4sc(N)c(C#N)c34)c(F)c2n1)C(C)(C)C)c1ccc(-c2ccccc2Cl)cc1 [Example 25]', 7.92),
  ('C#Cc1c(F)ccc2cc(O)cc(-c3ncc4c(N5CC6CCC(C5)N6)nc(OCCN5CCC6(CC5)CN(c5cc([C@H](C(=O)N7C[C@H](O)C[C@H]7C(=O)N[C@@H](C)c7ccc(-c8ccccc8Cl)cc7)C(C)C)on5)C6)nc4c3F)c12', 7.80),
  ('C#Cc1c(F)ccc2cc(O)cc(-c3ncc4c(N5CC6CCC(C5)N6)nc(OCCN5CCC(COc6cc([C@H](C(=O)N7C[C@H](O)C[C@H]7C(=O)N[C@@H](C)c7ccc(-c8c(F)cccc8F)cc7)C(C)C)on6)CC5)nc4c3F)c12', 7.90),
  ('CC(C)[C@@H](C(=O)N1C[C@H](O)C[C@H]1C(=O)N[C@@H](C)c1ccc(-c2c(F)cc(F)cc2F)cc1)c1cc(N2CC3(CCN(CCOc4nc(N5CC6CCC(C5)N6)c5cc(C(F)(F)F)c(-c6ccc(F)c7sc(N)c(C#N)c67)c(F)c5n4)CC3)C2)no1', 7.62),
  ('CC(C)[C@@H](C(=O)N1C[C@H](O)C[C@H]1C(=O)N[C@@H](C)c1ccc(-c2c(F)cccc2F)cc1)c1cc(N2CC3(CCN(CCOc4nc(N5CC6CCC(C5)N6)c5cc(C(F)(F)F)c(-c6ccc(F)c7sc(N)c(C#N)c67)c(F)c5n4)CC3)C2)no1', 7.75),
  ('C[C@H](NC(=O)[C@@H]1C[C@@H](O)CN1C(=O)[C@@H](NC(=O)CCOCCCN1CCCC1COc1nc(N2CC3CCC(C2)N3)c2cc(Cl)c(-c3ccc(F)c4sc(N)c(C#N)c34)c(F)c2n1)C(C)(C)C)c1ccc(-c2c(F)cccc2F)cc1 (some centres unmarked) [Example 19]', 8.12),
  ('Cc1ncsc1-c1ccc([C@H](C)NC(=O)[C@@H]2C[C@@H](O)CN2C(=O)[C@@H](NC(=O)CCOCCCN2CCC[C@H]2COc2nc(N3CC4CCC(C3)N4)c3cnc(-c4cc(O)cc5cccc(F)c45)c(F)c3n2)C(C)(C)C)cc1', 8.09);

---

target: KRAS (WT) (Homo sapiens, UniProt P01116); construct: Biotinylated KRAS protein amino acids 1-169 (produced at Erasca); made in house; test: In-vitro RAS-RAF binding assay (RRB), HTRF/FRET; type: biochemical; conditions: Table 2, average of multiple runs of each compound; read-out: Inhibition of RAS-RAF Binding (in-vitro) KRAS (WT) IC50
Sequence (P01116 1-169 isoform P01116-2): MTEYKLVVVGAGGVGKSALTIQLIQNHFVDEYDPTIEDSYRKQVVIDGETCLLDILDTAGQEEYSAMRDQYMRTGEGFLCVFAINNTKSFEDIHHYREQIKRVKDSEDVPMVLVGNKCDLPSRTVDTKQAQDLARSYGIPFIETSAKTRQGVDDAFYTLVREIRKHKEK
valueKind: IC50 (nM)

1. C[C@H](NC(=O)[C@@H]1C[C@@H](O)CN1C(=O)[C@@H](NC(=O)CCOCCCN1CCC[C@H]1COc1nc(N2CC3CCC(C2)N3)c2cc(C(F)(F)F)c(-c3ccc(F)c4sc(N)c(C#N)c34)c(F)c2n1)C(C)(C)C)c1ccc(-c2cccc(F)c2F)cc1
2. C#Cc1c(F)ccc2cc(O)cc(-c3ncc4c(N5CC6CCC(C5)N6)nc(OCCN5CCC(C)(COc6cc([C@H](C(=O)N7C[C@H](O)C[C@H]7C(=O)N[C@@H](C)c7ccc(-c8c(F)cccc8F)cc7)C(C)C)on6)CC5)nc4c3F)c12
Returns the identifier with the smallest measured IC50 among 1 and 2 . Label of pick, please.
1
(1: 67 nM, 2: 1200 nM)

---

molecular target: KRAS (WT) (Homo sapiens); construct: Biotinylated KRAS protein amino acids 1-169 (produced at Erasca); made in house; test: In-vitro RAS-RAF binding assay (RRB), HTRF/FRET; type: biochemical; settings: Table 2, average of multiple runs of each compound; read-out: Inhibition of RAS-RAF Binding (in-vitro) KRAS (WT) IC50
Measured IC50 by item
Please give a number only; it is taken to be in nM.

INSERT INTO results (compound, observedresult) VALUES
  ('C#Cc1c(F)ccc2cc(O)cc(-c3ncc4c(N5CC6CCC(C5)N6)nc(OC[C@@H]5CCCN5CCCOCCC(=O)N[C@H](C(=O)N5C[C@H](O)C[C@H]5C(=O)N[C@@H](C)c5ccc(-c6c(C)ccnc6C)cc5)C(C)(C)C)nc4c3F)c12 [Example 47]', 22.2);

// moving on: another record for IC50
Please tell me: IC50 of Cc1ncsc1-c1ccc([C@H](C)NC(=O)[C@@H]2C[C@@H](O)CN2C(=O)[C@@H](NC(=O)CCCCN2CCC[C@H]2COc2nc(N3CC4CCC(C3)N4)c3cc(Cl)c(-c4ccc(F)c5sc(N)nc45)c(F)c3n2)C(C)(C)C)cc1 [Example 7] , system KRAS (WT) (Homo sapiens)?
448
